# Test system: Liposome
# protocol.text: Inhibitory activity in liposome lysis assay
# Type: functional, subcellular, Homo sapiens
assay.endpoint: IC50 (µM)

CN(Cc1cc2ccccc2n1C)C(=O)/C=C/c1ccc(N)nc1
630

====

Target sequence: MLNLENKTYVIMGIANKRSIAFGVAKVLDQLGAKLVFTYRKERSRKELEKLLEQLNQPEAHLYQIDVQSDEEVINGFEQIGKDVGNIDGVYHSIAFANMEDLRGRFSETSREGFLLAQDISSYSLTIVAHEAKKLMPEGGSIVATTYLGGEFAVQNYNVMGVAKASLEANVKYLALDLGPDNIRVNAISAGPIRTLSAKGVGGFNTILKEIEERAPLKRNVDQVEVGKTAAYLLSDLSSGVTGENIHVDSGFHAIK
pIC50: −log10 of the molar value.
assay.endpoint: pIC50

CC(=O)Nc1ncc(/C=C/C(=O)N(C)Cc2cc3ccccc3n2C)cc1C
6.03
Cc1c(CN(C)C(=O)/C=C/c2cnc3c(c2)CCC(=O)N3)c2ccccc2n1C
7.22
Cc1cccc2c(CN(C)C(=O)/C=C/c3cnc4c(c3)CCC(=O)N4)c(C)n(C)c12
7.70
CN(Cc1cc2ccccc2n1C)C(=O)/C=C/c1cnc2c(c1)CCCN2
5.64
CC(=O)Nc1ccc(/C=C/C(=O)N(C)Cc2cc3ccccc3n2C)cn1
6.52
CN(Cc1cn(C)c2ccccc12)C(=O)/C=C/c1cnc2c(c1)CCC(=O)N2
6.89
Cc1[nH]c2ccccc2c1CN(C)C(=O)/C=C/c1cnc2c(c1)CCC(=O)N2
7.30
CN(Cc1cc2ccccc2n1C)C(=O)/C=C/c1cnc2c(c1)CCC(=O)N2
7.30
Cc1cc(/C=C/C(=O)N(C)Cc2cc3ccccc3n2C)cnc1N
6.04

====

The reader will find reported pIC50 values listed item by item below.
# protocol.text: Inhibitory activity against Enoyl-ACP reductase FabI in Escherichia coli
# Format: functional
pIC50: −log10 of the molar value.
assay.endpoint: pIC50

Cc1c(CN(C)C(=O)/C=C/c2cnc3c(c2)CCC(=O)N3)c2ccccc2n1C
7.52
CN(Cc1cn(C)c2ccccc12)C(=O)/C=C/c1cnc2c(c1)CCC(=O)N2
7.15

====

# System: Enterococcus faecalis
# protocol.text: Antibacterial activity against Enterococcus faecalis I
# Assay type: functional
assay.endpoint: MIC50 (µg/mL)

Oc1cc(Cl)ccc1Oc1ccc(Cl)cc1Cl [TRICLOSAN]
16
CN(Cc1cn(C)c2ccccc12)C(=O)/C=C/c1cnc2c(c1)CCC(=O)N2
16
Cc1[nH]c2ccccc2c1CN(C)C(=O)/C=C/c1cnc2c(c1)CCC(=O)N2
16

====

# protocol.text: Inhibitory activity against Enoyl-ACP reductase FabI in Haemophilus influenzae
pIC50: −log10 of the molar value.
Assign class by pIC50: not lower than 6 means met; lower than 6 means not met.

CN(Cc1cc2ccccc2n1C)C(=O)/C=C/c1cnc2c(c1)CCC(=O)N2
met
CN(Cc1cn(C)c2ccccc12)C(=O)/C=C/c1cnc2c(c1)CCC(=O)N2
met
CC(=O)Nc1ncc(/C=C/C(=O)N(C)Cc2cc3ccccc3n2C)cc1C
not met
Cc1cccc2c(CN(C)C(=O)/C=C/c3cnc4c(c3)CCC(=O)N4)c(C)n(C)c12
met
Cc1c(CN(C)C(=O)/C=C/c2cnc3c(c2)CCC(=O)N3)c2ccccc2n1C
met
Cc1cc(/C=C/C(=O)N(C)Cc2cc3ccccc3n2C)cnc1N
not met
CN(Cc1cc2ccccc2n1C)C(=O)/C=C/c1cnc2c(c1)CCCN2
not met
Cc1[nH]c2ccccc2c1CN(C)C(=O)/C=C/c1cnc2c(c1)CCC(=O)N2
met
CN(Cc1cc2ccccc2n1C)C(=O)/C=C/c1ccc(N)nc1
not met

====

# protocol.text: Inhibitory activity against human FASI enzyme
# Assay type: functional
assay.endpoint: IC50

CN(Cc1cc2ccccc2n1C)C(=O)/C=C/c1ccc(N)nc1
> 100 µM

====

# protocol.text: Inhibitory activity against Enoyl-ACP reductase FabK in Streptococcus pneumoniae
# Format: functional
This listing pairs compounds with measured IC50.
assay.endpoint: IC50 (µM)

CN(Cc1cn(C)c2ccccc12)C(=O)/C=C/c1cnc2c(c1)CCC(=O)N2
5
Cc1[nH]c2ccccc2c1CN(C)C(=O)/C=C/c1cnc2c(c1)CCC(=O)N2
3

====

Property: MIC50; scope: individual compounds
# Tested on: Escherichia coli
# protocol.text: Antibacterial activity against Escherichia coli 120AcrAB-
# Assay type: functional
assay.endpoint: MIC50 (µg/mL)

CN(Cc1cn(C)c2ccccc12)C(=O)/C=C/c1cnc2c(c1)CCC(=O)N2
8
Cc1c(CN(C)C(=O)/C=C/c2cnc3c(c2)CCC(=O)N3)c2ccccc2n1C
32
Oc1cc(Cl)ccc1Oc1ccc(Cl)cc1Cl
0.5
Cc1[nH]c2ccccc2c1CN(C)C(=O)/C=C/c1cnc2c(c1)CCC(=O)N2
0.5

====

# protocol.text: Inhibitory activity against Enoyl-ACP reductase FabK in Streptococcus pneumoniae
# Type: functional
pIC50: −log10 of the molar value.
Listing of recorded pIC50 by entry.
assay.endpoint: pIC50

Cc1cccc2c(CN(C)C(=O)/C=C/c3cnc4c(c3)CCC(=O)N4)c(C)n(C)c12
< 4.52
Cc1c(CN(C)C(=O)/C=C/c2cnc3c(c2)CCC(=O)N3)c2ccccc2n1C
< 4.52
Oc1cc(Cl)ccc1Oc1ccc(Cl)cc1Cl
< 4.52
